biological target: HER2/neu (Rattus norvegicus); experiment: HER2/neu autophosphorylation in MCNeuA cells (western blot); settings: read-out: IC50, ligand-independent tyrosine phosphorylation of HER2/neu
Sequence (P06494 23-1257): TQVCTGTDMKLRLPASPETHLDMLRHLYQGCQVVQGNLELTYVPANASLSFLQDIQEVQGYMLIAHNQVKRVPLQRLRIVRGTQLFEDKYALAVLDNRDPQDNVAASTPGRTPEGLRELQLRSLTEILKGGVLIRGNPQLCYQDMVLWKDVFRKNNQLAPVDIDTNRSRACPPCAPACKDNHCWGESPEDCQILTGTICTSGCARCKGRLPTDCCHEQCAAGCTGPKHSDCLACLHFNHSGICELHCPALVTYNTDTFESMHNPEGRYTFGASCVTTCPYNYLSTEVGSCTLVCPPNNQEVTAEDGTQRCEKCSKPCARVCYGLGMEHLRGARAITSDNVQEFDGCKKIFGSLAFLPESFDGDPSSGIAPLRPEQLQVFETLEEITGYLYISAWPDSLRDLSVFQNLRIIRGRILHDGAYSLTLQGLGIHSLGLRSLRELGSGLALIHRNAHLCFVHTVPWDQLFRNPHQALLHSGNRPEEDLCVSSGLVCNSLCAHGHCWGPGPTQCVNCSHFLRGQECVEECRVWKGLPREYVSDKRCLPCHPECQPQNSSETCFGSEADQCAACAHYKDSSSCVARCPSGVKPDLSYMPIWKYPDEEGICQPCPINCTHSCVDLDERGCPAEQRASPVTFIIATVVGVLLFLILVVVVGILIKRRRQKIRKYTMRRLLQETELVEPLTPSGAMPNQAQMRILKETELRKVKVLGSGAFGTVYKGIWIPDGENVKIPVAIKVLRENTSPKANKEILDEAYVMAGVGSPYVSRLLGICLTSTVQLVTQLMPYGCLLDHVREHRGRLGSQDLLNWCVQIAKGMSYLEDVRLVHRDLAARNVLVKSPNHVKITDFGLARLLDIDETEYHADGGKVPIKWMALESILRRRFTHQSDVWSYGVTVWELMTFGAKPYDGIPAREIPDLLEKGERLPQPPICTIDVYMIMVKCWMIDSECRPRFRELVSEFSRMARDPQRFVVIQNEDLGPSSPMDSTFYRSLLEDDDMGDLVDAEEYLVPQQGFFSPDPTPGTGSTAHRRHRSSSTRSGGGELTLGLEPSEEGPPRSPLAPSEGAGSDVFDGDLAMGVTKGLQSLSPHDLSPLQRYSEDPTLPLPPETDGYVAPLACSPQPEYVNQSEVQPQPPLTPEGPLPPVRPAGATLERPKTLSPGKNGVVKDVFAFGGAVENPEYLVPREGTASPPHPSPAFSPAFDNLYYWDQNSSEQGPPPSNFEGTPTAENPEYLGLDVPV
value-type: pIC50
pIC50 here: minus log base 10 of the concentration, concentration in moles per litre.

Consider the molecule CC(Cc1ccc(O)c(O)c1)C(C)Cc1ccc(O)c(O)c1 (stereo not shown) [NDGA, nordihydroguaiaretic acid] and give its measured pIC50.
4.82

---

target: HER2 (Homo sapiens, UniProt P04626); construct: MCF-7 cells stably transfected with the full length HER2 cDNA (MCF-7/HER2-18); assay: HER2 phosphorylation ELISA in MCF-7/HER2-18 cells; details: not stimulated, read-out: half maximal effect on HER2 phosphorylation
Sequence (P04626 23-1255): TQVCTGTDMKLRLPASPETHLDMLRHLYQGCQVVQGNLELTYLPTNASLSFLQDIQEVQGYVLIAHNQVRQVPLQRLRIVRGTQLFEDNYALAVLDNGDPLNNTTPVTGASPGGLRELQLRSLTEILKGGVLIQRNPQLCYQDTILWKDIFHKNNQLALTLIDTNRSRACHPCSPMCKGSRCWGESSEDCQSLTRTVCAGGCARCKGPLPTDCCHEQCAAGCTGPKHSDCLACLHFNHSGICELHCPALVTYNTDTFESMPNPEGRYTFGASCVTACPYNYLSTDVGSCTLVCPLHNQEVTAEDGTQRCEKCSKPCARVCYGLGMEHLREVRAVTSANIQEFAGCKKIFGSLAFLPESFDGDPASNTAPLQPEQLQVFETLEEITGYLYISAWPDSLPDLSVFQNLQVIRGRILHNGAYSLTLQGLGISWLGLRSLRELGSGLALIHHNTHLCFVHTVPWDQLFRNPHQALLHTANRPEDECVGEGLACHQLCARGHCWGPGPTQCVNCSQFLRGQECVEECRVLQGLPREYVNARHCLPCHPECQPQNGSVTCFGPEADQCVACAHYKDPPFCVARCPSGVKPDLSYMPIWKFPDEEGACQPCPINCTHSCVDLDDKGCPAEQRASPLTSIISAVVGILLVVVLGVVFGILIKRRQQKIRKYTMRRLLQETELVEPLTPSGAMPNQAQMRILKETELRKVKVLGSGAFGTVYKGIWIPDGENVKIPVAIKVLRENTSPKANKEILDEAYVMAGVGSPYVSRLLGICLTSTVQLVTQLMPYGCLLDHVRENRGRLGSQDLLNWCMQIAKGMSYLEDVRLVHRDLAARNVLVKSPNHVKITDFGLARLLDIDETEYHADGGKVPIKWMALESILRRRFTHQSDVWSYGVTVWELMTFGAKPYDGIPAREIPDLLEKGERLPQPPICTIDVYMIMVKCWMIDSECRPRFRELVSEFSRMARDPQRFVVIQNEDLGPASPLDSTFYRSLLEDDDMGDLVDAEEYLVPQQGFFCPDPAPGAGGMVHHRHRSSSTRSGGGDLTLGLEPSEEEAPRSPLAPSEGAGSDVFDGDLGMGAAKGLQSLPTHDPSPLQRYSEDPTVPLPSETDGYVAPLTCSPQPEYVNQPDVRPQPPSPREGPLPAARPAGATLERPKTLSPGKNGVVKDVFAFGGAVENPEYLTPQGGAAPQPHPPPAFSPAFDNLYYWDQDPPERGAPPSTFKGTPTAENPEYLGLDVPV
pIC50: −log10 of the molar value.
value-type: pIC50

Field: pIC50 (HER2 (Homo sapiens, UniProt P04626)). Entry: CC(Cc1ccc(O)c(O)c1)C(C)Cc1ccc(O)c(O)c1 (stereo not shown) [NDGA, nordihydroguaiaretic acid]
~4.52
